system: Saccharomyces cerevisiae; assay: protein stability index of tFT-peptide fusion (C-terminal peptide) (PSI (0-1 scale)); higher = more stable (slower turnover); details: genetic background: wild type; temperature: 30 C;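 note: PSI is a weighted mean of sequencing reads over stability bins, variants kept only with over 10 reads, mCherry proximal and sfGFP distal, peptide attached via GGGS linker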
The entries below come with measured protein stability index values attached.
Lab note: record just the number, no unit beside it.

Ask: # input sequence: FNIIHKKNTKEI ; wanted: its protein stability index
Result: 0.778

Ask: Now consider GDTQESSHIRIY and answer again.
Result: 0.669

* * *

Listing of entries alongside the reported protein stability index.
system: Saccharomyces cerevisiae; experiment: protein stability index of tFT-peptide fusion (C-terminal peptide) (PSI (0-1 scale)); higher = more stable (slower turnover); conditions: genetic background: wild type; temperature: 37 C

| Biopolymer sequence | protein stability index |
| --- | --- |
| PTPSRPPHPPLR | 0.69 |
| FMANRYICQKTL | 0.168 |
| VIVQSWEIIRLN | 0.122 |
| VCCSILFSAFLV | 0.549 |
| GDLEFCCLIIVL | 0.505 |

Ask: So what does the record say about protein stability index for KYKLYGIMIIEG ?
Result: 0.462

Ask: Param item: PLLSATLTRRLA
Result: 0.386

Ask: Likewise for RLPSSNVRYWVS ?
Result: 0.394

Ask: Next record, please: MLLFVSCCVFLF
Result: 0.219

Ask: Now this one: LLFCFSVILFTC
Result: 0.0808
